The reported numbers originate from ChEMBL document CHEMBL1201862.

System: A498
measurementNotes: NCI tumour cell line growth inhibition, 48 h
Calls of active or inactive are those of the source. Cut-off read from the data, not from the text of the source: active = GI50 up to about 1.1 µM and inactive = higher.
measuredEndpoint: GI50

Solved cases below.
{"columns": ["molecule", "measuredEndpoint", "reading"],
 "data": [
  ["COc1ccc2cc(C(=O)NCCCNC(=O)c3ccc4c(OC)c(OC)ccc4c3)ccc2c1OC", "GI50", "> 100 µM (inactive)"],
  ["O=C(NCCCCNCCCNC(=O)C(F)(F)F)C(F)(F)F", "GI50", "> 100 µM (inactive)"],
  ["CCC(CCCCC1CC[C@H]2CC(=O)C[C@@H]12)OC (stereo partly specified)", "GI50", "> 100 µM (inactive)"],
  ["O=c1[nH]nc(Cc2ccccc2)n1O", "GI50", "> 100 µM (inactive)"],
  ["CC(=O)O[C@H]1[C@@H](OC2CCCC2(c2ccccc2)c2ccccc2)O[N+]([O-])=C[C@@H]1c1ccccc1 (stereo partly specified)", "GI50", "8.22 µM (inactive)"],
  ["COC(=O)[C@@]1(Cc2ccc(O)cc2)C[C@@H]2Cc3ccccc3N2N1", "GI50", "27.9 µM (inactive)"]
]}

[in] Could you tell me which GI50 is on file for `O=c1c(O)c(-c2ccc(O)c(O)c2)oc2cc(O)ccc12` ?
[out] 26.3 µM (inactive)

[in] Could you tell me which GI50 is on file for `Clc1c(C(Cl)(Cl)Cl)nsc1N1CCCCC1` ?
[out] 20 µM (inactive)

[in] Could you tell me which GI50 is on file for `Cn1c2c(c3ccccc31)CCN(CCCCN1CCN(c3ccccc3)CC1)C2=O` ?
[out] 45 µM (inactive)

[in] Could you tell me which GI50 is on file for `COc1cc2ccccc2c2cc([N+](=O)[O-])oc12` ?
[out] 0.177 µM (active)

[in] Could you tell me which GI50 is on file for CC(C)N(C(=O)C12C3C4C1C1C2C3C41C(=O)N(C(C)C)C(C)C)C(C)C (stereo unspecified) ?
[out] > 50 µM (inactive)
